- measured_on: His标签人PD-L1抗原 (human) (UniProt Q9NZQ7)
- assay_method_text: ELISA, His-tagged human PD-L1 coated at 2.0 μg/mL; ratio = EC50 of chimeric antibody C1 (chC1) / EC50 of humanised antibody x 100%
observable: 相对结合活性，%

[[record]]
binder = "人源化抗PD-L1单域抗体C1-hu5 (Fc fusion, not shown: a dimerising Fc or GST) heavy: EVQLVESGGGLVQPGGSLRLSCAASGAAPCMAWFRQAPGKGLEGVSASVRGGLSPYYADVKGRFTISHDIPKNTMYLQMNSLRAEDTAVYYCAARATFYRCEGDASSYTYWGQGTLVTVSS"
result = "62.5%"

[[record]]
binder = "人源化抗PD-L1单域抗体C1-hu2 (Fc fusion, not shown: a dimerising Fc or GST) heavy: EVQLLESGGGLVQPGGSLRLSCAASGAAPCMAWFRQAPGKGLEGVSASVRGGLSPYYADVKGRFTISHDIPKNTLYLQMNSLRAEDTAVYYCAARATFYRCEGDASSYTYWGQGTLVTVSS"
result = "56.5%"

[[record]]
binder = "人源化抗PD-L1单域抗体C1-hu11 (Fc fusion, not shown: a dimerising Fc or GST) heavy: EVQLVESGGGLVQPGGSLRLSCAASGAAPCMAWFRQAPGKGREGVAASVRGGLSPYYADVKGRFTISHDIPKNTMYLQMNSLRAEDTAVYYCAARATFYRCEGDASSYTYWGQGTLVTVSS"
result = "81.3%"

[[record]]
binder = "人源化抗PD-L1单域抗体C1-hu16 (Fc fusion, not shown: a dimerising Fc or GST) heavy: EVQLVESGGGLVQPGGSLRLSCAASGAAPCMAWFRQAPGKEREGVAASVRGGLSPYYADVKGRFTISHDIPKNTMYLQMNSLRAEDTAVYYCAARATFYRCEGDASSYTYWGQGTLVTVSS"
result = "76.6%"

[[record]]
binder = "人源化抗PD-L1单域抗体C1-hu1 (Fc fusion, not shown: a dimerising Fc or GST) heavy: EVQLLESGGGLVQPGGSLRLSCAASGAAPCMAWFRQAPGKGLEGVSASVRGGLSPYYADVKGRFTISHDIPKNTMYLQMNSLRAEDTAVYYCAARATFYRCEGDASSYTYWGQGTLVTVSS"
result = "45.5%"

